tgt: α4β2 subtype of nicotinic acetylcholine receptors (Rattus norvegicus, UniProt P09483+P12390)
Construct: examined using rat brain membrane obtained from whole homogenized brain; from tissue; host or cells: rat whole brain membranes (Fischer-344 male rats)
Sequence (P09483 31-630): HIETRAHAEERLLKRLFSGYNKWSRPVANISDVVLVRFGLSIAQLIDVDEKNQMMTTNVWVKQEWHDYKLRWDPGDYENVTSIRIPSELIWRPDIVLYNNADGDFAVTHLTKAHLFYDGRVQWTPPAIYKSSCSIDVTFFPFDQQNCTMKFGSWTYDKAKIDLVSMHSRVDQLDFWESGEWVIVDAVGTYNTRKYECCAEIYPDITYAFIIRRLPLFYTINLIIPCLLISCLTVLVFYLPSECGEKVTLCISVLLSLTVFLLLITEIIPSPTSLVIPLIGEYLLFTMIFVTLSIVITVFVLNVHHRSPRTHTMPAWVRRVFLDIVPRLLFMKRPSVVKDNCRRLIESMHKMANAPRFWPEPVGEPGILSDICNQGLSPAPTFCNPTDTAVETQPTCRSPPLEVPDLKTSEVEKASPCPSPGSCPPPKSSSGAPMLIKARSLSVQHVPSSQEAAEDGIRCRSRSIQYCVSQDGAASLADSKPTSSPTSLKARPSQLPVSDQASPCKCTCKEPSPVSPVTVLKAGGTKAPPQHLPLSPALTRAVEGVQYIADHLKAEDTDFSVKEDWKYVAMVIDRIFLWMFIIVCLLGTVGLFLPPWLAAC
Sequence (P12390 25-500): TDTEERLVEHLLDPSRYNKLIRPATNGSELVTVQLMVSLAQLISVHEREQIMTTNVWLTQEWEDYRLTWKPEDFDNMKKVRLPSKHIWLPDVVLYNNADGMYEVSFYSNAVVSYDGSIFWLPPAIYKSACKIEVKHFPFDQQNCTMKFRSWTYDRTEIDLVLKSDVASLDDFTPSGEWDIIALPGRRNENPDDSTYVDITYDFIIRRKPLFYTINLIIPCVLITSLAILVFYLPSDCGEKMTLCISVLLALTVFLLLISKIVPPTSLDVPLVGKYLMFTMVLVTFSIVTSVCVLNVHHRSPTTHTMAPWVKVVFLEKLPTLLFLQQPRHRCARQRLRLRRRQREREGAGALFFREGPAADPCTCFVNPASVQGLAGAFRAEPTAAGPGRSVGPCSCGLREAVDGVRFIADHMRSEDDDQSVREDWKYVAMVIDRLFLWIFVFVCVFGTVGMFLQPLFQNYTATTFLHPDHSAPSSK
assay_comment: Binding assay at α4β2 subtype of nicotinic acetylcholine receptors ([3H]-cytisine, rat brain membrane)
Ki vs 10 nM: less than gives Yes; not less than gives No.

-- ask Answer whether the molecule `Clc1ccc(CC2=NCCCN2)cn1` has Ki strictly less than 10 nM
-- reply No

-- ask Would you mind doing `c1ncc(CC2=NCCCN2)cn1` as well?
-- reply No

-- ask Would you mind doing CC1CCNC(Cc2ccc(Cl)nc2)=N1 (stereo not drawn) as well?
-- reply No

-- ask Would you mind doing `Clc1ccc(CN2C=NCCC2)cn1` as well?
-- reply Yes

-- ask Would you mind doing `Clc1ccc(C2=NCCCN2)cn1` as well?
-- reply No

-- ask Would you mind doing `Clc1cc(CC2=NCCCN2)cnc1Cl` as well?
-- reply No

-- ask Would you mind doing `CC1(C)CN(Cc2ccc(Cl)nc2)C=N1` as well?
-- reply No

-- ask Would you mind doing `Clc1ncc(CC2=NCCCN2)s1` as well?
-- reply Yes

-- ask Would you mind doing `CN1CCCN=C1Cc1ccc(Cl)nc1` as well?
-- reply Yes

-- ask Would you mind doing `Clc1ccc(CC2=NCCN2)cn1` as well?
-- reply No

-- ask Would you mind doing `Clc1ncc(CC2=NCCN2)s1` as well?
-- reply No

----------
tgt: α1β1γδ subtype of nicotinic acetylcholine receptors (Rattus norvegicus, UniProt P18916+P25108+P25109+P25110)
Sequence (P25109 24-501): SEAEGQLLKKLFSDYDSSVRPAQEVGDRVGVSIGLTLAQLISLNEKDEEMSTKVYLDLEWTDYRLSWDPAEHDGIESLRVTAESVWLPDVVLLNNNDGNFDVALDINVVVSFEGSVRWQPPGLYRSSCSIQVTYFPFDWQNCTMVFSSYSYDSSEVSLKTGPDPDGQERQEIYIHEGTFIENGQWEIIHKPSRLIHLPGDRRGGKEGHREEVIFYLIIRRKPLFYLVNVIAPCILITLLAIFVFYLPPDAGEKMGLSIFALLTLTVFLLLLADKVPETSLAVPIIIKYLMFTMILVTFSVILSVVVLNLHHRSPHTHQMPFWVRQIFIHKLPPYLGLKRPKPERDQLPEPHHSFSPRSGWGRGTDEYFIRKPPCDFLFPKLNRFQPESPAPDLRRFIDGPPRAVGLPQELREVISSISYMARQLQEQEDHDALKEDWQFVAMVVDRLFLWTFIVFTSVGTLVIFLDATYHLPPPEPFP
Sequence (P25110 22-517): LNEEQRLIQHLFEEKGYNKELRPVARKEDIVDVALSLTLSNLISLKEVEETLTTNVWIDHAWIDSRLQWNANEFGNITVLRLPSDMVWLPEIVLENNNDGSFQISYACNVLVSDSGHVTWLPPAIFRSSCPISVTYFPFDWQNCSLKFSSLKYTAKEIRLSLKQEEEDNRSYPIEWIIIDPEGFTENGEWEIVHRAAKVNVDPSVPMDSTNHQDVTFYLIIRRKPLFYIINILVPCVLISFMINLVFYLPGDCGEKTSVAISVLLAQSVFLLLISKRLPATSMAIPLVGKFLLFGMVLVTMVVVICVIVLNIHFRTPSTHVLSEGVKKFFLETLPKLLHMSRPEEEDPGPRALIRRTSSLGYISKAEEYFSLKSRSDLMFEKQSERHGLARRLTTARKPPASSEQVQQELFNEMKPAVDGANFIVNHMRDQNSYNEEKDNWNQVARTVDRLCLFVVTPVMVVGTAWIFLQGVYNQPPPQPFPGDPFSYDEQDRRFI
Sequence (P25108 21-457): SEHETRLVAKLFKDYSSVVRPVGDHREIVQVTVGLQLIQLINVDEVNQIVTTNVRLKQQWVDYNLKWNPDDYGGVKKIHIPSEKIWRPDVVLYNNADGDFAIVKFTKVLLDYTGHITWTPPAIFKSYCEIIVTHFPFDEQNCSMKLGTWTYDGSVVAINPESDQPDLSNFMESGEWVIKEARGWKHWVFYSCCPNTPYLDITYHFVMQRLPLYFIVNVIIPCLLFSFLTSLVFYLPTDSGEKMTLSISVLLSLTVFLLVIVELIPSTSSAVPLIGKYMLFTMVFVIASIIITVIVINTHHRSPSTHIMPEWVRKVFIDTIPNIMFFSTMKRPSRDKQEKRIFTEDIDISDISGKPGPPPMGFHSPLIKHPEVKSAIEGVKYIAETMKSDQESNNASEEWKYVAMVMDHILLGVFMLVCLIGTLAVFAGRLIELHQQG
assay_comment: biochemical
Format: binding
test_conditions: read-out: control % of [3H]-α-Bgt binding at 1,000 μM of test compound
The entries below come with measured remaining activity at 1000 µM values attached.

Example cases with answers are listed next.
>>> endpoint_result("Cc1ccc(CC2=NCCCN2)cn1")
"28%"
>>> endpoint_result("c1cncc(CC2=NCCN2)c1")
"29%"
>>> endpoint_result("Clc1ccc(C2=NCCCN2)cn1")
"6%"

-- ask Which measured remaining activity at 1000 µM value corresponds to `c1ccc2ncc(C3=NCCCN3)cc2c1` ?
-- reply 7%

-- ask Would you mind doing `Brc1cncc(CC2=NCCCN2)c1` as well?
-- reply 30%

-- ask Would you mind doing `Clc1ncc(C2=NCCCN2)s1` as well?
-- reply -4%

----------
tgt: α1β1γδ subtype of nicotinic acetylcholine receptors (Rattus norvegicus, UniProt P18916+P25108+P25109+P25110)
assay_comment: biochemical
readout_label: pKi
pKi field: float, defined as -log10 of concentration (mol/L).

-- ask Which measured pKi value corresponds to `Clc1ccc(CC2=NCCCN2)cn1` ?
-- reply 3.40

-- ask Would you mind doing `C1=NCCCN1Cc1cccnc1` as well?
-- reply 4.49

-- ask Would you mind doing `Clc1ncc(CC2=NCCN2)s1` as well?
-- reply 3.28

----------
tgt: α1β1γδ subtype of nicotinic acetylcholine receptors (Rattus norvegicus, UniProt P18916+P25108+P25109+P25110)
assay_comment: biochemical
Format: binding
test_conditions: read-out: control % of [3H]-α-Bgt binding at 100 μM of test compound
remaining activity at 100 µM vs 60%: less than gives 1.0; not less than gives 0.0.

Look over these answered cases.
>>> classification("Clc1ccc(CC2=NCCN2)cn1")
0.0
>>> classification("c1cncc(CC2=NCCCN2)c1")
0.0
>>> classification("CC1(C)CN(Cc2ccc(Cl)nc2)C=N1")
0.0
>>> classification("Clc1ncc(C2=NCCCN2)s1")
1.0

Attention now turns to another entry.
-- ask Answer whether the compound `CN1CCN=C1Cc1ccc(Cl)nc1` has remaining activity at 100 µM strictly less than 60%
-- reply 1.0
